Experiment: GC retention time (DB-5MS, GC-APCI); higher = later elution
Readings of GC retention time for the listed compounds
Please answer in the form of a number followed by its unit of measurement.

Solved entries:
{"compound": "Brc1ccc(Oc2ccc(Br)c(Br)c2)c(Br)c1 [PBDE 66] (APCI source condition: Dry, base ion: M+.)", "GC retention time": "22.5 min"}
{"compound": "CCCCOCCOP(=O)(OCCOCCCC)OCCOCCCC [Tris(2-butoxyethyl) phosphate] (APCI source condition: Wet, base ion: [M+H]+)", "GC retention time": "21.1 min"}

Here's the next entry for you.
Provide one value: measured GC retention time of Clc1ccc(-c2cc(Cl)c(Cl)c(Cl)c2Cl)c(Cl)c1Cl [PCB 170] (APCI source condition: Dry, base ion: M+.)
22.5 min

---

Assay: GC retention time (DB-5MS, GC-APCI); higher = later elution
Everything with GC retention time lower than 20 min is false (0); everything else, including exactly 20 min, is true (1).

Here are 2 compounds together with their reported answers.
{"compound": "C=CCOc1c(Br)cc(Br)cc1Br [1,3,5-Tribromo-2-prop-2-enoxybenzene] (APCI source condition: Dry, base ion: [M-Br]+)", "answer label": "false (0)"}
{"compound": "O=P(Oc1ccccc1)(Oc1ccccc1)Oc1ccccc1 [Triphenylphosphate] (APCI source condition: Wet, base ion: [M+H]+)", "answer label": "true (1)"}

# bool: GC retention time of CCCCCCCCCCCCCCC=CC(F)(F)C(F)(F)C(F)(F)C(F)(F)C(F)(F)C(F)(F)C(F)(F)C(F)(F)C(F)(F)C(F)(F)C(F)(F)C(F)(F)F [1-(Perfluorododecyl)-hexadec-1-ene] (APCI source condition: Dry, base ion: [M-H]+) >= 20 min
false (0)

Identify whether the reported GC retention time of the following compound is 20 min or greater: ClC1=C(Cl)C2(Cl)C3C(Cl)C=CC3C1(Cl)C2(Cl)Cl (stereo not drawn) [Heptachlor] (APCI source condition: Dry, base ion: [M-H]+)
false (0)

Reported GC retention time at or above 20 min? Brc1cccc(Oc2c(Br)c(Br)c(Br)c(Br)c2Br)c1Br [PBDE 173] (APCI source condition: Dry, base ion: M+.)
true (1)

Please check the record Clc1ccc(Cl)c(-c2c(Cl)ccc(Cl)c2Cl)c1Cl [PCB136] (APCI source condition: Dry, base ion: M+.) and state if its GC retention time is at or above 20 min.
false (0)

---

Assay: collision cross section (N2, base ion); higher = larger ion cross section
Note to self: values exactly at 200 Å² are class 1. So collision cross section at or above 200 Å² is class 1, below is class 0.

{"compound": "CCCCCCCCCCCCCCC=CC(F)(F)C(F)(F)C(F)(F)C(F)(F)C(F)(F)C(F)(F)C(F)(F)C(F)(F)C(F)(F)C(F)(F)C(F)(F)C(F)(F)F [1-(Perfluorododecyl)-hexadec-1-ene] (APCI source condition: Dry, base ion: [M-H]+)", "answer label": "class 1"}

Check the entry Brc1cc(Br)c(Oc2c(Br)cc(Br)c(Br)c2Br)cc1Br [PBDE 183] (APCI source condition: Dry, base ion: M+.) : does collision cross section equal or exceed 200 Å²?
class 0

Decide: is the reported value of collision cross section for ClC1=C(Cl)[C@]2(Cl)[C@@H]3[C@@H]4C[C@@H]([C@H]5O[C@@H]45)[C@@H]3[C@@]1(Cl)C2(Cl)Cl [Dieldrin] (APCI source condition: Dry, base ion: M+.) equal to or greater than 200 Å²?
class 0

Hello, I need to know if c1ccc2c(c1)ccc1ccccc12 [Phenanthrene] (APCI source condition: Dry, base ion: M+.) has measured collision cross section not below 200 Å². Thanks!
class 0

# bool: collision cross section of Clc1ccc(-c2c(Cl)ccc(Cl)c2Cl)cc1Cl [PCB 110] (APCI source condition: Dry, base ion: M+.) >= 200 Å²
class 0

---

Assay: collision cross section (N2, base ion); higher = larger ion cross section
Listed compounds paired with reported collision cross section
Form entry: value (Å²) — number only.

Field: example entries. Status: answers known.
{"compound": "O=P(OC(CCl)CCl)(OC(CCl)CCl)OC(CCl)CCl [Tris(1,3-dichloropropan-2-yl) phosphate] (APCI source condition: Wet, base ion: [M+H]+)", "measured number": 175.08}
{"compound": "c1ccc2c(c1)ccc1c3ccccc3ccc21 [Chrysene] (APCI source condition: Dry, base ion: M+.)", "measured number": 141.28}
{"compound": "c1ccc2c(c1)c1cccc3ccc4cccc2c4c31 [Benzo(e)pyrene] (APCI source condition: Dry, base ion: M+.)", "measured number": 142.88}
{"compound": "Clc1ccc(-c2ccc(Cl)cc2Cl)cc1 [PCB 28] (APCI source condition: Dry, base ion: M+.)", "measured number": 142.54}

Check the records and state collision cross section for CCCCC(CC)COP(=O)(Oc1ccccc1)Oc1ccccc1 (configuration not stated) [2-Ethylhexyl diphenyl phosphate] (APCI source condition: Wet, base ion: [M-C8H15]+)
149.25

Look up collision cross section of Brc1c(Br)c(Br)c(Br)c(Br)c1Br [Hexabromobenzene] (APCI source condition: Dry, base ion: M+.) and report it.
135.29

---

Assay: GC retention time (DB-5MS, GC-APCI); higher = later elution
measured metric: GC retention time
Field: value (include unit after the number)

Give recorded GC retention time. c1ccc2c(c1)-c1ccc3ccc4cccc5cc-2c1c3c45 [Indeno(1,2,3-cd)pyrene] (APCI source condition: Dry, base ion: M+.)
27.7 min

Annotate the compound Clc1ccc(-c2ccccc2)cc1 [PCB 3] (APCI source condition: Dry, base ion: M+.) with its measured GC retention time.
13.2 min

---

Experiment: collision cross section (N2, base ion); higher = larger ion cross section
Each item that follows carries a reported collision cross section.
Write the value in Å² as a bare number.

Some solved cases for reference:
{"compound": "Brc1cc(Br)c(Oc2cc(Br)c(Br)cc2Br)c(Br)c1 [PBDE 154] (APCI source condition: Dry, base ion: M+.)", "measured number": 178.18}
{"compound": "Clc1cc(Cl)c(-c2cc(Cl)c(Cl)cc2Cl)cc1Cl [PCB 153] (APCI source condition: Dry, base ion: M+.)", "measured number": 161.05}

Return reported collision cross section. Input compound: Brc1ccc(Br)c(Oc2c(Br)c(Br)c(Br)c(Br)c2Br)c1 [PBDE 185] (APCI source condition: Dry, base ion: M+.)
182.95

---

Parameter collision cross section: see the listing below.
Assay: collision cross section (N2, base ion); higher = larger ion cross section
Expressed in Å², but write only the number.

Answered examples (5):
{"compound": "ClC1=C(Cl)C2(Cl)C3C(Cl)C=CC3C1(Cl)C2(Cl)Cl (stereo unspecified) [Heptachlor] (APCI source condition: Dry, base ion: [M-H]+)", "collision cross section [Å²]": 157.41}
{"compound": "CC(CCl)OP(=O)(OC(C)CCl)OC(C)CCl (stereo unspecified) [Tris(1-chloro-2-propyl)phosphate] (APCI source condition: Wet, base ion: [M-C3H4Cl]+)", "collision cross section [Å²]": 160.76}
{"compound": "Brc1cc(Br)c(Oc2cc(Br)c(Br)c(Br)c2Br)c(Br)c1 [PBDE 182] (APCI source condition: Dry, base ion: M+.)", "collision cross section [Å²]": 185.51}
{"compound": "Clc1ccc(-c2ccccc2)cc1 [PCB 3] (APCI source condition: Dry, base ion: M+.)", "collision cross section [Å²]": 137.62}
{"compound": "ClC1=C(Cl)[C@]2(Cl)[C@H]3[C@H]([C@H]4C=C[C@@H]3C4)[C@@]1(Cl)C2(Cl)Cl [Isodrin] (APCI source condition: Dry, base ion: M+.)", "collision cross section [Å²]": 150.98}

Okay, now this compound:
Identify measured collision cross section associated with Brc1cccc(Oc2ccc(Br)c(Br)c2)c1 [PBDE 35] (APCI source condition: Dry, base ion: M+.)
154.86

---

Assay: GC retention time (DB-5MS, GC-APCI); higher = later elution
In this section we review reported GC retention time values for a set of compounds.
Give the quantity in min, number only.

{"compound": "c1ccc2c(c1)c1cccc3ccc4cccc2c4c31 [Benzo(e)pyrene] (APCI source condition: Dry, base ion: M+.)", "GC retention time, min": 24.7}
{"compound": "Brc1cc(Br)c(OCCOc2c(Br)cc(Br)cc2Br)c(Br)c1 [1,2-Bis(2,4,6-tribromophenoxy)ethane] (APCI source condition: Dry, base ion: M+.)", "GC retention time, min": 29}

Kindly review the next compound as well.
Report GC retention time for Cc1c(Br)c(Br)c(Br)c(Br)c1Br [Pentabromotoluene] (APCI source condition: Dry, base ion: M+.)
20.1

---

Test: GC retention time (DB-5MS, GC-APCI); higher = later elution
measured metric: GC retention time (min)
Entry rule: numbers only, all in min.

Below are worked cases with known answers.
{"compound": "ClC1C(Cl)C(Cl)C(Cl)C(Cl)C1Cl (stereo not drawn) [α-Hexachlorocyclohexane] (APCI source condition: Dry, base ion: [M-H2Cl3]+)", "measured number": 14.5}
{"compound": "Clc1ccc(-c2c(Cl)ccc(Cl)c2Cl)cc1Cl [PCB 110] (APCI source condition: Dry, base ion: M+.)", "measured number": 19.4}
{"compound": "c1cc2ccc3cccc4ccc(c1)c2c34 [Pyrene] (APCI source condition: Dry, base ion: M+.)", "measured number": 18.9}

Recall and state the measured GC retention time for Clc1cc(Cl)c(-c2c(Cl)ccc(Cl)c2Cl)cc1Cl [PCB 149] (APCI source condition: Dry, base ion: M+.) .
19.8

Check the records and state GC retention time for c1ccc2c(c1)ccc1ccccc12 [Phenanthrene] (APCI source condition: Dry, base ion: M+.)
15.6
